Tested on: Saccharomyces cerevisiae
Assay: protein stability index of tFT-peptide fusion (C-terminal peptide) (PSI (0-1 scale)); higher = more stable (slower turnover)
Conditions: genetic background: cdc53-1; temperature: 37 C
Lab note: anything with protein stability index at or over 0.5 counts as Fulfilled; the rest go in Not fulfilled.

• LVFAFFLLSFFI = Fulfilled
• LVYLVCAYSECE = Not fulfilled
• GFVSLFRLFIRL = Not fulfilled
• YLFFVCLHLKAG = Not fulfilled

API: the following record is the query input.
IN: Determine whether this sequence has protein stability index no lower than 0.5: LSRLIFKVSVLM
OUT: Fulfilled

====

I'd appreciate it if you could supply protein stability index values for the items below.
Test system: Saccharomyces cerevisiae
Experiment: protein stability index of tFT-peptide fusion (C-terminal peptide) (PSI (0-1 scale)); higher = more stable (slower turnover)
Details: genetic background: wild type; temperature: 30 C
One number for each entry.

- DLRCLKYKYKNA [YGR016W C-terminal 12 aa]: 0.348
- GWEVLSVYSFTR [MTQ2 C-terminal 12 aa]: 0.737
- LWNLSDNCKNTV [MMS1 C-terminal 12 aa]: 0.701
- ECPRFSNKHGRN [YDR169C-A C-terminal 12 aa]: 0.681
- NDTIFKLKVFKL [ILS1 C-terminal 12 aa]: 0.759
- KHKNILSFNNNT [YDR543C C-terminal 12 aa]: 0.709
- IDKFLDHIGKSQ [FBP1 C-terminal 12 aa]: 0.703
- GVETLLDIFMKF [ARG82 C-terminal 12 aa]: 0.706
- EPLKESIFNQLK [MRPL23 C-terminal 12 aa]: 0.678
- TLTQEEINELST [LTE1 C-terminal 12 aa]: 0.689

Please go through the list and note protein stability index for each sequence.
1. ERDNWWVVAQKR [TRM9 C-terminal 12 aa]
2. WARRSFSSYDLC [GID11 C-terminal 12 aa]
3. CSGMKPISELQQ [RSM28 C-terminal 12 aa]
4. IQQTNSFLREII [YDL211C C-terminal 12 aa]
5. DTVLRKFADYKI [MPS1 C-terminal 12 aa]
6. ITSKRKAELLLK [DIS3 C-terminal 12 aa]
7. NYEITPYENVHV [TOS2 C-terminal 12 aa]
8. INKASVKFFFFA [YJL119C C-terminal 12 aa]

OUT:
1. 0.723
2. 0.694
3. 0.682
4. 0.706
5. 0.679
6. 0.754
7. 0.713
8. 0.227

Please go through the list and note protein stability index for each sequence.
1. VEMAVKFGKNAF [RIB4 C-terminal 12 aa]
2. FIRFAINIHTFI [YJL009W C-terminal 12 aa]
3. PKYKEEESRSAV [RSN1 C-terminal 12 aa]
4. CRESNLKLIVSG [ARR2 C-terminal 12 aa]
5. GGLDCKSNVFMR [PAC1 C-terminal 12 aa]

OUT:
[0.689, 0.377, 0.668, 0.712, 0.723]
